Molecular target: recombinant human BCAT1 enzyme (Homo sapiens, UniProt P54687)
Construct: purchased ATGen (South Korea) ATGP1479
Assay: In vitro assay 1a: BCAT1 biochemical assay (coupled LeuDH/NADH fluorescence readout)
Conditions: recombinant human BCAT1 […], 32° C., 100 μM leucine, 50 μM α-ketoglutarate, NADH fluorescence over 90 min; read-out: BCAT1 IC50
Experimental: In Vitro Assay 1a and 1b: BCAT1 and BCAT2 Biochemical Assay BOAT (Branched chain amino acid transferase) catalyzes transamination of the branched chain amino acid leucine to α-ketoisocaproate (KIC). The BOAT enzymatic reaction was measured in a coupled readout with leucine dehydrogenase (LeuDH) which catalyzes the Nicotinamide adenine dinucleotide (NADH) dependent reduction of KIC to leucine. NADH consumption is measured by fluorescent readout. […]
pIC50: −log10 of the molar value.
Param threshold (6) applies to pIC50; output Condition met when value >= threshold, Condition not met when value < threshold.

>  <compound>
Cc1cc(C#N)c(Oc2ccccc2Cl)cc1-n1c(=O)cc(C(F)(F)F)[nH]c1=O (racemic) [Example 10]

>  <category>
Condition met

$$$$
>  <compound>
COc1cc(C#N)c(Oc2ccccc2C)cc1-n1c(=O)cc(C(F)F)[nH]c1=O (racemic) [Example 22]

>  <category>
Condition met

$$$$
>  <compound>
Cc1cc(Cl)cc(C)c1Oc1cc(-n2c(=O)cc(C(F)(F)F)[nH]c2=O)c(F)cc1C#N [Example 61]

>  <category>
Condition not met

$$$$
>  <compound>
COc1cc(C#N)c(Oc2ccccc2Cl)cc1-n1c(=O)cc(C(F)(F)F)[nH]c1=O (racemic) [Example 15]

>  <category>
Condition met

$$$$
>  <compound>
Cc1ccc(C)c(Oc2cc(-n3c(=O)cc(C(F)(F)F)[nH]c3=O)c(F)cc2C#N)c1C [Example 60]

>  <category>
Condition not met

$$$$

Consider now this further compound.
Hello, I need to know if COc1cc(C#N)c(Oc2ccccc2C)cc1-n1c(=O)cc(Br)[nH]c1=O (single isomer, unassigned) [Example 21] has measured pIC50 not below 6. Thanks!
Condition met

* * *

system: MDA-MB231 cells; assay: In vitro assay 2: BCAT cellular assay, leucine in medium of MDA-MB231 cells; type: cell-based; conditions: Homo sapiens, MDA-MB-231, 24 h, 24 hours incubation, leucine level in medium (LeuDH/diaphorase/resazurin readout), read-out: MDAMB-231 IC50
Overview of reported IC50 across a group of compounds:

Reference set (3 entries):
>  <compound>
Cc1ccccc1Oc1cc(-n2c(=O)cc(-c3cccc(Cl)c3)[nH]c2=O)c(F)cc1C#N

>  <assay.target>
MDA-MB231 cells

>  <quantity>
IC50

>  <recorded.result>
> 30 µM

$$$$
>  <compound>
COc1cc(C#N)c(Oc2ccccc2C)cc1-n1c(=O)cc(C(F)(F)F)[nH]c1=O (racemic)

>  <assay.target>
MDA-MB231 cells

>  <quantity>
IC50

>  <recorded.result>
> 30 µM

$$$$
>  <compound>
N#Cc1cc(F)c(-n2c(=O)cc(C(F)(F)F)[nH]c2=O)cc1Oc1c(F)cccc1F

>  <assay.target>
MDA-MB231 cells

>  <quantity>
IC50

>  <recorded.result>
> 30 µM

$$$$

Requested read-out: IC50. Entry: Cc1ccccc1Oc1cc(-n2c(=O)cc(C(F)(F)F)[nH]c2=O)cnc1C#N
> 30 µM

Report IC50 for Cc1ccccc1Oc1cc(-n2c(=O)cc(-c3ccccc3)[nH]c2=O)c(F)cc1C#N please.
> 30 µM

* * *

Below, each of the compounds is paired with its reported log10(IC50) value.
Target: recombinant human BCAT1 enzyme (Homo sapiens, UniProt P54687)
Construct: purchased ATGen (South Korea) ATGP1479
Sequence (P54687 1-386): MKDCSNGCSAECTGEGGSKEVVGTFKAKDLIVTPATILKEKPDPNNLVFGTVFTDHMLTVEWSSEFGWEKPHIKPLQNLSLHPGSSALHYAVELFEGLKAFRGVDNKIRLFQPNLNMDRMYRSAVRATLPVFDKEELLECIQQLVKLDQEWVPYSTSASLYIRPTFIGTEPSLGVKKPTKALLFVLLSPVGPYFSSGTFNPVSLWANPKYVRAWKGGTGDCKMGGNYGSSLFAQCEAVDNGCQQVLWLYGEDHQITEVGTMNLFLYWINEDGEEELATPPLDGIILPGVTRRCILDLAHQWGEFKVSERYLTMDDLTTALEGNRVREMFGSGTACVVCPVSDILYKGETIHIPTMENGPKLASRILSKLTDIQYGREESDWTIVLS
Test: In vitro assay 1a: BCAT1 biochemical assay (coupled LeuDH/NADH fluorescence readout)
Conditions: recombinant human BCAT1 […], 32° C., 100 μM leucine, 50 μM α-ketoglutarate, NADH fluorescence over 90 min; read-out: BCAT1 IC50
Please be aware that the numbers have been log10-transformed from IC50 in nM.

>  <compound>
N#Cc1ccc(-n2c(=O)cc(C(F)(F)F)[nH]c2=O)cc1Oc1ccccc1Cl

>  <quantity>
log10(IC50)

>  <recorded.result>
2.83

$$$$
>  <compound>
COc1cc(C#N)c(Oc2ccccc2C)cc1-n1c(=O)cc(S(C)(=O)=O)[nH]c1=O (racemic) [Example 79]

>  <quantity>
log10(IC50)

>  <recorded.result>
2.85

$$$$
>  <compound>
Cc1ccccc1Oc1cc(-n2c(=O)cc(C(=O)NCC(F)(F)F)[nH]c2=O)c(F)cc1C#N

>  <quantity>
log10(IC50)

>  <recorded.result>
3.24

$$$$
>  <compound>
COc1cc(C#N)c(Oc2ccccc2C)cc1-n1c(=O)cc(-c2ccc(C(F)(F)F)cc2)[nH]c1=O (racemic)

>  <quantity>
log10(IC50)

>  <recorded.result>
3.65

$$$$
>  <compound>
Cc1cccc(C)c1Oc1cc(-n2c(=O)cc(C(F)(F)F)[nH]c2=O)ccc1C#N

>  <quantity>
log10(IC50)

>  <recorded.result>
2.84

$$$$
>  <compound>
COc1cc(C#N)c(Oc2ccccc2Cl)cc1-n1c(=O)cc(C(F)(F)F)[nH]c1=O (single isomer, unassigned) [Example 16]

>  <quantity>
log10(IC50)

>  <recorded.result>
2.18

$$$$
>  <compound>
Cc1ccccc1Oc1cc(-n2c(=O)cc(C(F)(F)F)[nH]c2=O)cnc1C#N

>  <quantity>
log10(IC50)

>  <recorded.result>
2.81

$$$$
>  <compound>
Cc1ccccc1Oc1cc(-n2c(=O)cc(C(F)(F)F)[nH]c2=O)c(Br)cc1C#N (racemic)

>  <quantity>
log10(IC50)

>  <recorded.result>
2.30

$$$$
>  <compound>
Cc1ccccc1Oc1cc(-n2c(=O)cc(Br)[nH]c2=O)c(F)cc1C#N

>  <quantity>
log10(IC50)

>  <recorded.result>
2.50

$$$$
>  <compound>
Cc1cccc(Oc2cc(-n3c(=O)cc(C(F)(F)F)[nH]c3=O)c(F)cc2C#N)c1C

>  <quantity>
log10(IC50)

>  <recorded.result>
3.71

$$$$

Please look up its log10(IC50): COc1cc(C#N)c(Oc2ccccc2C)cc1-n1c(=O)cc(Br)[nH]c1=O (racemic) [Example 19]
2.30

Which log10(IC50) value is on record for COc1cc(C#N)c(Oc2ccccc2C)cc1-n1c(=O)cc(Br)[nH]c1=O (single isomer, unassigned) [Example 20] ?
3.37

Quick one: log10(IC50) of Cc1ccccc1Oc1cc(-n2c(=O)cc(S(C)(=O)=O)[nH]c2=O)c(F)cc1C#N ?
3.43

State the recorded log10(IC50) for this entry: Cc1ccccc1Oc1cc(-n2c(=O)cc(C3CC3)[nH]c2=O)c(F)cc1C#N
3.30

Return reported log10(IC50); argument: COc1cc(C#N)c(Oc2ccccc2C)cc1-n1c(=O)cc(C(F)(F)c2ccccc2)[nH]c1=O (racemic)
2.16

Query: log10(IC50); subject: Cc1ccccc1Oc1cc(-n2c(=O)cc(-c3ccccc3)[nH]c2=O)c(F)cc1C#N
2.84

* * *

In this section, each of the molecules is paired with its reported IC50.
target: recombinant human BCAT2 enzyme (Homo sapiens, UniProt O15382); construct: purchased ATGen (South Korea) ATGP1523; test: In vitro assay 1b: BCAT2 biochemical assay (coupled LeuDH/NADH fluorescence readout); conditions: BCAT2 IC50 [M]
Sequence (O15382 28-392): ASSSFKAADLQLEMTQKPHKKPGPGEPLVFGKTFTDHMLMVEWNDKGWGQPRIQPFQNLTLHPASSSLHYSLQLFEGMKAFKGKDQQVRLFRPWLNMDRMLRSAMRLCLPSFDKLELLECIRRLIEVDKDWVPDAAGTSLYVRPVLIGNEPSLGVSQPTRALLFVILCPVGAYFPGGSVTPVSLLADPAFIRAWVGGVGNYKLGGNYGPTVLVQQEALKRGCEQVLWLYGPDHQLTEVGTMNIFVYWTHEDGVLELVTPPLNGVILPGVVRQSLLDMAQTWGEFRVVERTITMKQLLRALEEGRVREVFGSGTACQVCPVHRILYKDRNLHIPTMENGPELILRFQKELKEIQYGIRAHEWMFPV
A complete answer gives the number and then names the unit.

Here's what some known entries look like.
>  <molecule>
Cc1ccccc1Oc1cc(-n2c(=O)cc(C(F)(F)F)[nH]c2=O)c(C)cc1C#N (single isomer, unassigned) [Example 9]

>  <assay.target>
recombinant human BCAT2 enzyme (Homo sapiens, UniProt O15382)

>  <recorded.result>
9e-07 M

$$$$
>  <molecule>
Cc1ccccc1Oc1cc(-n2c(=O)cc(C(F)(F)F)[nH]c2=O)c(C)cc1C#N (single isomer, unassigned) [Example 8]

>  <assay.target>
recombinant human BCAT2 enzyme (Homo sapiens, UniProt O15382)

>  <recorded.result>
9e-06 M

$$$$

Report IC50 for Cc1ccccc1Oc1cc(-n2c(=O)cc(C(F)(F)F)[nH]c2=O)c(C)cc1C#N (racemic) [Example 7] please.
1.8e-06 M
